Known relative viability of a selection of molecules
System: NCI-H1355
measurementNotes: relative viability (nuclei count vs DMSO), 5 days (fraction); higher = more cells survive
measurementConditions: first compound 158.11 µM
Could you respond with only the numeric value?

Some molecules with recorded relative viability:
[[record]]
molecule = "O=C(O)CCCCC(CCSCc1ccccc1)SCc1ccccc1 (centres undefined) [CPI-613] + Cc1cc(Nc2cc(N3CCN(C)CC3)nc(Sc3ccc(NC(=O)C4CC4)cc3)n2)n[nH]1 [Tozasertib] (partner 0.1 µM)"
valuekind = "relative viability"
result = 0.314

[[record]]
molecule = "O=C(O)CCCCC(CCSCc1ccccc1)SCc1ccccc1 (centres undefined) [CPI-613] + CC(=O)c1c(C)c2cnc(Nc3ccc(N4CCNCC4)cn3)nc2n(C2CCCC2)c1=O [Palbociclib] (partner 0.5 µM)"
valuekind = "relative viability"
result = 0.407

[[record]]
molecule = "O=C(O)CCCCC(CCSCc1ccccc1)SCc1ccccc1 (centres undefined) [CPI-613] + CS(=O)(=O)CCNCc1ccc(-c2ccc3ncnc(Nc4ccc(OCc5cccc(F)c5)c(Cl)c4)c3c2)o1 [Lapatinib] (partner 2 µM)"
valuekind = "relative viability"
result = 0.642


Would you kindly look at the next entry?
Task: Which relative viability value belongs to O=C(O)CCCCC(CCSCc1ccccc1)SCc1ccccc1 (centres undefined) [CPI-613] + CC(C)C[C@H](NC(=O)[C@H](Cc1ccccc1)NC(=O)c1cnccn1)B(O)O [Bortezomib] (partner 0.002 µM) ?
Output: 0.646
